target: T1, UHRF1 SRA (mouse, UniProt Q8VDF2 417-628)
T1 sequence: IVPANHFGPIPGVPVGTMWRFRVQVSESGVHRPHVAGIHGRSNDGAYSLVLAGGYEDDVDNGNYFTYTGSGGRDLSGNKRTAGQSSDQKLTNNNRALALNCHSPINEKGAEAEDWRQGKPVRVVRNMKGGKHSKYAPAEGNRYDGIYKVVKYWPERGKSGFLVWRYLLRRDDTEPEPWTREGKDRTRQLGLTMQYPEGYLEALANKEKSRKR
assaySummary: ITC
measure: pKd
One number for each entry, as −log10 of the molar value.

The value of pKd measured for the binder fully-mCG DNA (dsDNA, 5mC on both strands in CG context) DNA 1: CAGCTCGAGCTG DNA 2: CAGCTCGAGCTG turned out to be 5.38

Data provenance is paper doi:10.1101/2019.12.17.880419.
